target: Muscarine M1 (GPCR-A-MA-ACH M1) (Homo sapiens); construct: expressed in transfected cells; host or cells: CHO cells; experiment: Muscarine M1 receptor binding, 3H-Pirenzepine; details: human M1, CHO cells, ligand 2 nM, 60 min/22° C., read-out: RB Musc. M1 3H-Pirenzepine pKi (converted)
Sequence (P11229 whole entry): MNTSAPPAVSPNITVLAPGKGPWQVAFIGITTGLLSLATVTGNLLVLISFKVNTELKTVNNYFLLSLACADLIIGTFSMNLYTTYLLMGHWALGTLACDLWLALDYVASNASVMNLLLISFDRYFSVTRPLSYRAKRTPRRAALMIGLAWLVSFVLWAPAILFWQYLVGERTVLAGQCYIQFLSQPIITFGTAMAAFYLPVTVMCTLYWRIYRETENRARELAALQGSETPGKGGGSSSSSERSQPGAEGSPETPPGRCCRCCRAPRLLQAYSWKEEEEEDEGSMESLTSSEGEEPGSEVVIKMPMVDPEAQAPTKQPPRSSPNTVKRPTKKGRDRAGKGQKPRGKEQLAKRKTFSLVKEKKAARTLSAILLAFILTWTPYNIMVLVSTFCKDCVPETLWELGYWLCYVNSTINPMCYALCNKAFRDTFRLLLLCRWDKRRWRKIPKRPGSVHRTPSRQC
Listed below: Ki values for each entry.

- compound: "COCCOCCSc1c[nH]nc1C1=CCCN(C)C1 [Compound 22P]"
  assayed_target: "Muscarine M1 (GPCR-A-MA-ACH M1) (Homo sapiens)"
  Ki: "> 10000 nM"
- compound: "CCCCCSc1nc[nH]c1C1=CCCN(C)C1 [Compound 76A]"
  assayed_target: "Muscarine M1 (GPCR-A-MA-ACH M1) (Homo sapiens)"
  Ki: "2510 nM"
- compound: "CCCCC=Cc1conc1C1=CCCN(C)C1 [Compound 68A]"
  assayed_target: "Muscarine M1 (GPCR-A-MA-ACH M1) (Homo sapiens)"
  Ki: "1580 nM"
- compound: "CCCCCCSc1conc1C1=CCCN(C)C1 [Compound 66B]"
  assayed_target: "Muscarine M1 (GPCR-A-MA-ACH M1) (Homo sapiens)"
  Ki: "631 nM"
- compound: "CSc1c[nH]nc1C1CN2CCC1CC2 (centres unmarked) [Compound 49C]"
  assayed_target: "Muscarine M1 (GPCR-A-MA-ACH M1) (Homo sapiens)"
  Ki: "1000 nM"
- compound: "CN1CCC=C(c2n[nH]cc2OCCCc2ccccc2)C1 [Compound 33A]"
  assayed_target: "Muscarine M1 (GPCR-A-MA-ACH M1) (Homo sapiens)"
  Ki: "1260 nM"
- compound: "CCCCCCSc1nc[nH]c1C1=CCCN(C)C1 [Compound 76B]"
  assayed_target: "Muscarine M1 (GPCR-A-MA-ACH M1) (Homo sapiens)"
  Ki: "3980 nM"
- compound: "CCCCSc1conc1C1=CCCN(C)C1 [Compound 66A]"
  assayed_target: "Muscarine M1 (GPCR-A-MA-ACH M1) (Homo sapiens)"
  Ki: "251 nM"
- compound: "C=CCCCOc1c[nH]nc1C1=CCCN(C)C1 [Compound 33F]"
  assayed_target: "Muscarine M1 (GPCR-A-MA-ACH M1) (Homo sapiens)"
  Ki: "3980 nM"
- compound: "CCCCC#Cc1c[nH]nc1C1=CCCN(C)C1 [Compound 45A]"
  assayed_target: "Muscarine M1 (GPCR-A-MA-ACH M1) (Homo sapiens)"
  Ki: "1580 nM"
- compound: "CCCCC=Cc1c[nH]nc1C1=CCCN(C)C1 [Compound 47A]"
  assayed_target: "Muscarine M1 (GPCR-A-MA-ACH M1) (Homo sapiens)"
  Ki: "2510 nM"
- compound: "CCCCCc1c[nH]nc1C1=CCCN(C)C1 [Compound 9]"
  assayed_target: "Muscarine M1 (GPCR-A-MA-ACH M1) (Homo sapiens)"
  Ki: "1260 nM"
- compound: "CN1CCC=C(c2n[nH]cc2SCCCc2ccccc2)C1 [Compound 22I]"
  assayed_target: "Muscarine M1 (GPCR-A-MA-ACH M1) (Homo sapiens)"
  Ki: "794 nM"
- compound: "CCCCSc1c[nH]nc1[C@@H]1CN2CCC[C@H]1C2 (relative stereo) [Compound 60B]"
  assayed_target: "Muscarine M1 (GPCR-A-MA-ACH M1) (Homo sapiens)"
  Ki: "398 nM"
- compound: "CCCCCOc1c[nH]nc1C1=CCCN(C)C1 [Compound 33G]"
  assayed_target: "Muscarine M1 (GPCR-A-MA-ACH M1) (Homo sapiens)"
  Ki: "1580 nM"
- compound: "CC(C)CCSc1c[nH]nc1C1=CCCN(C)C1 [Compound 22S]"
  assayed_target: "Muscarine M1 (GPCR-A-MA-ACH M1) (Homo sapiens)"
  Ki: "126 nM"
- compound: "CCCCOc1c[nH]nc1C1CN2CCC1CC2 (centres unmarked) [Compound 52A]"
  assayed_target: "Muscarine M1 (GPCR-A-MA-ACH M1) (Homo sapiens)"
  Ki: "794 nM"
- compound: "CCCCCCCC#Cc1c[nH]nc1C1=CCCN(C)C1 [Compound 45C]"
  assayed_target: "Muscarine M1 (GPCR-A-MA-ACH M1) (Homo sapiens)"
  Ki: "794 nM"
- compound: "CCCOc1c[nH]nc1C1CN2CCC1CC2 (centres unmarked) [Compound 52B]"
  assayed_target: "Muscarine M1 (GPCR-A-MA-ACH M1) (Homo sapiens)"
  Ki: "631 nM"
- compound: "CCOCCSc1c[nH]nc1C1=CCCN(C)C1 [Compound 22O]"
  assayed_target: "Muscarine M1 (GPCR-A-MA-ACH M1) (Homo sapiens)"
  Ki: "7940 nM"
